All values here come from patent US20030186281A1.

Test system: tet operator sequence
Assay: β-galactosidase activity of a tetracycline-regulated promoter in transformed E. coli with revTetR, in the presence and absence of anhydrotetracycline (atc)
Assay type: cell-based, Escherichia coli
Settings: RevTetR isolate cultured in the presence of anhydrotetracycline (ATC)
Strictly below 3 in β-Galactosidase Activity, Cultured With ATC: 1.0. Otherwise: 0.0.

INSERT INTO results (molecule, label) VALUES
  ('TetRrev28/30: revTetR(BD) V20G G21A I22I E23G (protein, Modified tetracycline repressor, revTetR(BD) V20G G21A I22I E23G) MSRLDKSKVINSALELLNEGAIGGLTTRKLAQKLGVEQPTLYWHVKNKRALLDALAVEILARHHDYSLPAAGESWQSFLRNNAMSFRRALLRYRDGAKVHLGTRPDEKQYDTVETQLRFMTENGFSLRDGLYAISAVSHFTLGAVLEQQEHTAALTDRPAAPDENLPPLLREALQIMDSDDGEQAFLHGLESLIRGFEVQLTALLQIV', 0.0),
  ('TetRrev28/48: revTetR(BD) N18Y V20D I22T W43S (protein, Modified tetracycline repressor, revTetR(BD) N18Y V20D I22T W43S) MSRLDKSKVINSALELLYEDGTEGLTTRKLAQKLGVEQPTLYSHVKNKRALLDALAVEILARHHDYSLPAAGESWQSFLRNNAMSFRRALLRYRDGAKVHLGTRPDEKQYDTVETQLRFMTENGFSLRDGLYAISAVSHFTLGAVLEQQEHTAALTDRPAAPDENLPPLLREALQIMDSDDGEQAFLHGLESLIRGFEVQLTALLQIV', 1.0),
  ('TetRrevAD1/6: revTetR(BD) N18Y E23V D53A A54S L55L A56S A61T H63Y (protein, Modified tetracycline repressor, revTetR(BD) N18Y E23V D53A A54S L55L A56S A61T H63Y) MSRLDKSKVINSALELLYEVGIVGLTTRKLAQKLGVEQPTLYWHVKNKRALLASLSVEILTRYHDYSLPAAGESWQSFLRNNAMSFRRALLRYRDGAKVHLGTRPDEKQYDTVETQLRFMTENGFSLRDGLYAISAVSHFTLGAVLEQQEHTAALTDRPAAPDENLPPLLREALQIMDSDDGEQAFLHGLESLIRGFEVQLTALLQIV', 1.0),
  ('TetRrevAtc4-67: revTetR(BD) K48K D53Y A56G E58G (protein, Modified tetracycline repressor, revTetR(BD) K48K D53Y A56G E58G) MSRLDKSKVINSALELLNEVGIEGLTTRKLAQKLGVEQPTLYWHVKNKRALLYALGVGILARHHDYSLPAAGESWQSFLRNNAMSFRRALLRYRDGAKVHLGTRPDEKQYDTVETQLRFMTENGFSLRDGLYAISAVSHFTLGAVLEQQEHTAALTDRPAAPDENLPPLLREALQIMDSDDGEQAFLHGLESLIRGFEVQLTALLQIV', 0.0),
  ('TetRrevAF1/3: revTetR(BD) G24G D95A G96R (protein, Modified tetracycline repressor, revTetR(BD) G24G D95A G96R) MSRLDKSKVINSALELLNEVGIEGLTTRKLAQKLGVEQPTLYWHVKNKRALLDALAVEILARHHDYSLPAAGESWQSFLRNNAMSFRRALLRYRARAKVHLGTRPDEKQYDTVETQLRFMTENGFSLRDGLYAISAVSHFTLGAVLEQQEHTAALTDRPAAPDENLPPLLREALQIMDSDDGEQAFLHGLESLIRGFEVQLTALLQIV', 1.0),
  ('TetRrevAD2/6: revTetR(BD) N18Y G21E E23K (protein, Modified tetracycline repressor, revTetR(BD) N18Y G21E E23K) MSRLDKSKVINSALELLYEVEIKGLTTRKLAQKLGVEQPTLYWHVKNKRALLDALAVEILARHHDYSLPAAGESWQSFLRNNAMSFRRALLRYRDGAKVHLGTRPDEKQYDTVETQLRFMTENGFSLRDGLYAISAVSHFTLGAVLEQQEHTAALTDRPAAPDENLPPLLREALQIMDSDDGEQAFLHGLESLIRGFEVQLTALLQIV', 0.0),
  ('TetRrev19/48: revTetR(BD) N18K E19D V20L I22N E23A (protein, Modified tetracycline repressor, revTetR(BD) N18K E19D V20L I22N E23A) MSRLDKSKVINSALELLKDLGNAGLTTRKLAQKLGVEQPTLYWHVKNKRALLDALAVEILARHHDYSLPAAGESWQSFLRNNAMSFRRALLRYRDGAKVHLGTRPDEKQYDTVETQLRFMTENGFSLRDGLYAISAVSHFTLGAVLEQQEHTAALTDRPAAPDENLPPLLREALQIMDSDDGEQAFLHGLESLIRGFEVQLTALLQIV', 1.0);
